The measurements presented in this section are drawn from paper PMC10457016.

biological target: human sEH (Homo sapiens, UniProt P34913); test: Determination of inhibitory potency; type: biochemical
Sequence (P34913 whole entry): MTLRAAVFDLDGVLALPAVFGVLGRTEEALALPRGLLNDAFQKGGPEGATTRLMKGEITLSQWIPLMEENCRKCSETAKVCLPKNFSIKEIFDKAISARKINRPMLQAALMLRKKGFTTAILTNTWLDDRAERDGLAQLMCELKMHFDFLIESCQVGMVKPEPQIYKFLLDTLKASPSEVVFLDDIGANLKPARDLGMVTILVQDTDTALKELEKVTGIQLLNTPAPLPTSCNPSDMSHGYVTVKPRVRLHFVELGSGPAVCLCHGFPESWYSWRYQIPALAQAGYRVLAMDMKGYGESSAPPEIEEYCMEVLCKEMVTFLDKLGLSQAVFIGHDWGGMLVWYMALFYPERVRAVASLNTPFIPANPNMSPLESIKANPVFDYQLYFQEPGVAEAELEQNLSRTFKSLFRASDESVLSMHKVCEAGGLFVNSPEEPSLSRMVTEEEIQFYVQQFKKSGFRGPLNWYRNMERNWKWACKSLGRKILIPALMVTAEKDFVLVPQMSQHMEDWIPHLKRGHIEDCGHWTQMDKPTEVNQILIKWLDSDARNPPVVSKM
IC50 values, listed per item
measurement_label: IC50 (nM)

- smiles_text: "O=C(NCc1ccn(CC(F)(F)F)n1)NCC12CC3CC(CC(C3)C1)C2"
  measured_on: "human sEH (Homo sapiens, UniProt P34913)"
  uom: "nM"
  value_reported: 7.3
- smiles_text: "Cn1nc(CNC(=O)NCC23CC4CC(CC(C4)C2)C3)c(Cl)c1Cl"
  measured_on: "human sEH (Homo sapiens, UniProt P34913)"
  uom: "nM"
  value_reported: 1.2
- smiles_text: "O=C(NCc1ccn(CC(F)F)n1)NCC12CC3CC(CC(C3)C1)C2"
  measured_on: "human sEH (Homo sapiens, UniProt P34913)"
  uom: "nM"
  value_reported: 27.5
- smiles_text: "O=C(NCc1ccn(C(F)F)n1)NCC12CC3CC(CC(C3)C1)C2"
  measured_on: "human sEH (Homo sapiens, UniProt P34913)"
  uom: "nM"
  value_reported: 15
- smiles_text: "O=C(NCc1ccn(CCF)n1)NCC12CC3CC(CC(C3)C1)C2"
  measured_on: "human sEH (Homo sapiens, UniProt P34913)"
  uom: "nM"
  value_reported: 13.8

---

assay: Solubility in sodium phosphate buffer; assay type: physicochemical; conditions: sodium phosphate buffer, pH 7.4, aqueous buffer
measurement_label: Solubility

- smiles_text: "O=C(NCc1ccn(C(F)F)n1)NCC12CC3CC(CC(C3)C1)C2"
  value_reported: "570 to 580 µM"
- smiles_text: "O=C(NCc1ccn(CC(F)F)n1)NCC12CC3CC(CC(C3)C1)C2"
  value_reported: "270 to 280 µM"
- smiles_text: "O=C(NCc1ccn(CC(F)(F)F)n1)NCC12CC3CC(CC(C3)C1)C2"
  value_reported: "740 to 750 µM"
- smiles_text: "Cn1nc(CNC(=O)NCC23CC4CC(CC(C4)C2)C3)c(Cl)c1Cl"
  value_reported: "120 to 130 µM"
- smiles_text: "O=C(NCc1ccn(CCF)n1)NCC12CC3CC(CC(C3)C1)C2"
  value_reported: "650 to 660 µM"

---

assay: Solubility in sodium phosphate buffer; assay type: physicochemical; settings: sodium phosphate buffer (pH 7.4, 0.1 M) containing 1% of DMSO

- smiles_text: "Cn1nc(CNC(=O)NC23CC4CC(CC(C4)C2)C3)c(Cl)c1Cl"
  Solubility: "250 to 260 µM"
- smiles_text: "O=C(NCc1ccn(C(F)F)n1)NC12CC3CC(CC(C3)C1)C2"
  Solubility: "670 to 680 µM"
- smiles_text: "Cn1nc(CNC(=O)NC23CC4CC(CC(C4)C2)C3)cc1C(F)(F)F"
  Solubility: "160 to 170 µM"
- smiles_text: "Cn1nc(CNC(=O)NCC23CC4CC(CC(C4)C2)C3)cc1C(F)(F)F"
  Solubility: "160 to 170 µM"
- smiles_text: "O=C(NCc1ccn(CCF)n1)NC12CC3CC(CC(C3)C1)C2"
  Solubility: "440 to 450 µM"
- smiles_text: "O=C(NCc1ccn(CC(F)F)n1)NC12CC3CC(CC(C3)C1)C2"
  Solubility: "300 to 310 µM"
- smiles_text: "O=C(NCc1ccn(CC(F)(F)F)n1)NC12CC3CC(CC(C3)C1)C2"
  Solubility: "390 to 400 µM"

---

target: human sEH (Homo sapiens, UniProt P34913); assay: Determination of inhibitory potency; assay type: biochemical; conditions: kinetic fluorescent assay; substrate 5 μM, human sEH 1 nM; means of three separate experiments
measurement_label: log10 IC50 (log10 of the value in nM)

- smiles_text: "Cn1nc(CNC(=O)NCC23CC4CC(CC(C4)C2)C3)cc1C(F)(F)F"
  measurement_label: "log10 IC50"
  value_reported: 1.35
- smiles_text: "O=C(NCc1ccn(CCF)n1)NC12CC3CC(CC(C3)C1)C2"
  measurement_label: "log10 IC50"
  value_reported: 1.01
- smiles_text: "O=C(NCc1ccn(CC(F)(F)F)n1)NC12CC3CC(CC(C3)C1)C2"
  measurement_label: "log10 IC50"
  value_reported: 0.98
- smiles_text: "Cn1nc(CNC(=O)NC23CC4CC(CC(C4)C2)C3)cc1C(F)(F)F"
  measurement_label: "log10 IC50"
  value_reported: 1.00
- smiles_text: "O=C(NCc1ccn(C(F)F)n1)NC12CC3CC(CC(C3)C1)C2"
  measurement_label: "log10 IC50"
  value_reported: 0.94
- smiles_text: "Cn1nc(CNC(=O)NC23CC4CC(CC(C4)C2)C3)c(Cl)c1Cl"
  measurement_label: "log10 IC50"
  value_reported: -0.10
- smiles_text: "O=C(NCc1ccn(CC(F)F)n1)NC12CC3CC(CC(C3)C1)C2"
  measurement_label: "log10 IC50"
  value_reported: 1.08
